target: hCA IX (Homo sapiens, UniProt Q16790); experiment: biochemical; conditions: KI hCA I / KI hCA IX
OBSERVED PROPERTY: Selectivity ratio I/IX

• NS(=O)(=O)c1ccc(NN=C2C(=O)N(CC(=O)Nc3ccc(Br)cc3)c3ccccc32)cc1 [3c] = 13.392

Challenge: # return Selectivity ratio I/IX of NS(=O)(=O)c1ccc(NC(=O)CN2C(=O)C(=O)c3ccccc32)cc1 [2h] (system: hCA IX (Homo sapiens, UniProt Q16790))
Response given: 0.673

Challenge: # return Selectivity ratio I/IX of NS(=O)(=O)c1ccc(NN=C2C(=O)N(CC(=O)Nc3ccccc3)c3ccccc32)cc1 [3a] (system: hCA IX (Homo sapiens, UniProt Q16790))
Response given: 18.384

Challenge: # return Selectivity ratio I/IX of NS(=O)(=O)c1ccc(NN=C2C(=O)N(CC(=O)Nc3ccc(Cl)cc3)c3ccccc32)cc1 [3b] (system: hCA IX (Homo sapiens, UniProt Q16790))
Response given: 7.252

Challenge: # return Selectivity ratio I/IX of NS(=O)(=O)c1ccc(NCC(=O)NN=C2C(=O)N(CC(=O)Nc3ccccc3)c3ccccc32)cc1 [4a] (system: hCA IX (Homo sapiens, UniProt Q16790))
Response given: 5.741

---

Entries and their Selectivity ratio II/IX values follow.
biological target: UniProtKB Q16790; test: biochemical; details: KI hCA II / KI hCA IX
Lab note: record the figure alone, no unit after it.

• NS(=O)(=O)c1ccc(NCC(=O)NN=C2C(=O)N(CC(=O)Nc3ccccc3)c3ccccc32)cc1 [4a] = 0.995

Challenge: Specify measured Selectivity ratio II/IX for NS(=O)(=O)c1ccc(NCC(=O)NN=C2C(=O)N(CC(=O)Nc3ccccc3Br)c3ccccc32)cc1 [4g] .
Response given: 0.272

Challenge: Specify measured Selectivity ratio II/IX for NS(=O)(=O)c1ccc(NCC(=O)NN=C2C(=O)N(CC(=O)Nc3ccccc3Cl)c3ccccc32)cc1 [4f] .
Response given: 0.554

Challenge: Specify measured Selectivity ratio II/IX for NS(=O)(=O)c1ccc(NN=C2C(=O)N(CC(=O)Nc3ccccc3)c3ccccc32)cc1 [3a] .
Response given: 1.203

Challenge: Specify measured Selectivity ratio II/IX for NS(=O)(=O)c1ccc(NN=C2C(=O)N(CC(=O)Nc3ccc(Cl)cc3)c3ccccc32)cc1 [3b] .
Response given: 3.674

---

Entries and their log10 of Ki values follow.
target: UniProt Q16790; assay: biochemical; conditions: log KI hCA IX (experimental), log of KI in nM; compounds of this paper
Heads up, the numbers here are log10 of Ki in nM units.

Examples with answers:
• NS(=O)(=O)c1ccc(NN=C2C(=O)N(CC(=O)Nc3ccccc3)c3ccccc32)cc1 = 2.33
• NS(=O)(=O)c1ccc(NC(=O)CN2C(=O)C(=O)c3ccccc32)cc1 = 1.83
• NS(=O)(=O)c1ccc(NN=C2C(=O)N(CC(=O)Nc3ccc(Cl)cc3)c3ccccc32)cc1 = 2.09

Challenge: Specify measured log10 of Ki for NS(=O)(=O)c1ccc(NCC(=O)NN=C2C(=O)N(CC(=O)Nc3ccccc3Br)c3ccccc32)cc1 .
Response given: 3.87

Challenge: Specify measured log10 of Ki for NS(=O)(=O)c1ccc(NN=C2C(=O)N(CC(=O)Nc3ccc(Br)cc3)c3ccccc32)cc1 .
Response given: 1.76

---

Entries and their Ki values follow.
biological target: UniProtKB Q16790; assay: biochemical; settings: KI hCA IX, 15 min preincubation; mean from 3 different assays
Write down the numeric answer in nM and omit the unit.

Examples with answers:
* NS(=O)(=O)c1ccc(NN=C2C(=O)N(CC(=O)Nc3ccc(Cl)cc3)c3ccccc32)cc1 | 123
* NS(=O)(=O)c1ccc(NN=C2C(=O)N(CC(=O)Nc3ccc(Br)cc3)c3ccccc32)cc1 | 56.9
* Cc1ccc(NC(=O)CN2C(=O)C(=NNc3ccc(S(N)(=O)=O)cc3)c3ccccc32)cc1 | 85.5
* NS(=O)(=O)c1ccc(NCC(=O)NN=C2C(=O)N(CC(=O)Nc3ccccc3)c3ccccc32)cc1 | 808
* NS(=O)(=O)c1ccc(NCC(=O)NN=C2C(=O)N(CC(=O)Nc3ccccc3Cl)c3ccccc32)cc1 | 5360
* NS(=O)(=O)c1ccc(NCC(=O)NN=C2C(=O)N(CC(=O)Nc3ccc(Cl)cc3)c3ccccc32)cc1 | 3920

Challenge: Specify measured Ki for NS(=O)(=O)c1ccc(NC(=O)CN2C(=O)C(=O)c3ccccc32)cc1 .
Response given: 67

Challenge: Specify measured Ki for NS(=O)(=O)c1ccc(NCC(=O)NN=C2C(=O)N(CC(=O)Nc3ccccc3Br)c3ccccc32)cc1 .
Response given: 7340

Challenge: Specify measured Ki for NS(=O)(=O)c1ccc(NN=C2C(=O)N(CC(=O)Nc3ccccc3)c3ccccc32)cc1 .
Response given: 216

---

biological target: hCA XII (Homo sapiens); test: stopped flow CO2 hydrase assay, hCA XII; assay type: biochemical; details: KI hCA XII, 15 min preincubation; mean from 3 different assays
Sequence (O43570 25-354): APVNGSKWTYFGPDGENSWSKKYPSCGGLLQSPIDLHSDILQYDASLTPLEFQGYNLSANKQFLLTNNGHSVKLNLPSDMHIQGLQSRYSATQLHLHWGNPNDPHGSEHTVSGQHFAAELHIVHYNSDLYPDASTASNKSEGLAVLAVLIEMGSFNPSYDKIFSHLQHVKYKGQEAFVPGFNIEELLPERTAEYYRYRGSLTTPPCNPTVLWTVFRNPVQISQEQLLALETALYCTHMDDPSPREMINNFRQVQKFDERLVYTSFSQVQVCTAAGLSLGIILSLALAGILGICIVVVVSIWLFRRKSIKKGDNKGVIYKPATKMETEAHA
Entries and their pKi values follow.
Entry type: numeric. Quantity: pKi, the -log10 of concentration in molar units.

Examples with answers:
* Cc1ccc(NC(=O)CN2C(=O)C(=NNc3ccc(S(N)(=O)=O)cc3)c3ccccc32)cc1 | 6.15
* NS(=O)(=O)c1ccc(NN=C2C(=O)N(CC(=O)Nc3ccc(Cl)cc3)c3ccccc32)cc1 | 6.32
* NS(=O)(=O)c1ccc(NCC(=O)NN=C2C(=O)N(CC(=O)Nc3ccccc3Cl)c3ccccc32)cc1 | 6.12

Challenge: # return pKi of NS(=O)(=O)c1ccc(NCC(=O)NN=C2C(=O)N(CC(=O)Nc3ccc(Cl)cc3)c3ccccc32)cc1 (system: hCA XII (Homo sapiens))
Response given: 5.30

Challenge: # return pKi of NS(=O)(=O)c1ccc(NN=C2C(=O)N(CC(=O)Nc3ccc(Br)cc3)c3ccccc32)cc1 (system: hCA XII (Homo sapiens))
Response given: 6.21

Challenge: # return pKi of NS(=O)(=O)c1ccc(NC(=O)CN2C(=O)C(=O)c3ccccc32)cc1 (system: hCA XII (Homo sapiens))
Response given: 8.10

Challenge: # return pKi of NS(=O)(=O)c1ccc(NN=C2C(=O)N(CC(=O)Nc3ccccc3)c3ccccc32)cc1 (system: hCA XII (Homo sapiens))
Response given: 5.44

Challenge: # return pKi of NS(=O)(=O)c1ccc(NCC(=O)NN=C2C(=O)N(CC(=O)Nc3ccccc3)c3ccccc32)cc1 (system: hCA XII (Homo sapiens))
Response given: 5.17

Challenge: # return pKi of NS(=O)(=O)c1ccc(NCC(=O)NN=C2C(=O)N(CC(=O)Nc3ccccc3Br)c3ccccc32)cc1 (system: hCA XII (Homo sapiens))
Response given: 6.07

---

target: hCA II (Homo sapiens, UniProt P00918); assay: stopped flow CO2 hydrase assay, hCA II; type: biochemical
Entries and their Ki values follow.
Write down the numeric answer in nM and omit the unit.

Examples with answers:
• NS(=O)(=O)c1ccc(NCC(=O)NN=C2C(=O)N(CC(=O)Nc3ccccc3Br)c3ccccc32)cc1 [4g] = 2000
• NS(=O)(=O)c1ccc(NN=C2C(=O)N(CC(=O)Nc3ccc(Cl)cc3)c3ccccc32)cc1 [3b] = 452
• NS(=O)(=O)c1ccc(NC(=O)CN2C(=O)C(=O)c3ccccc32)cc1 [2h] = 5.87

Challenge: Specify measured Ki for NS(=O)(=O)c1ccc(NN=C2C(=O)N(CC(=O)Nc3ccc(Br)cc3)c3ccccc32)cc1 [3c] .
Response given: 56.4

Challenge: Specify measured Ki for NS(=O)(=O)c1ccc(NCC(=O)NN=C2C(=O)N(CC(=O)Nc3ccc(Cl)cc3)c3ccccc32)cc1 [4b] .
Response given: 4590

Challenge: Specify measured Ki for NS(=O)(=O)c1ccc(NCC(=O)NN=C2C(=O)N(CC(=O)Nc3ccccc3Cl)c3ccccc32)cc1 [4f] .
Response given: 2970

Challenge: Specify measured Ki for Cc1ccc(NC(=O)CN2C(=O)C(=NNc3ccc(S(N)(=O)=O)cc3)c3ccccc32)cc1 [3d] .
Response given: 79.9

Challenge: Specify measured Ki for NS(=O)(=O)c1ccc(NN=C2C(=O)N(CC(=O)Nc3ccccc3)c3ccccc32)cc1 [3a] .
Response given: 260

Challenge: Specify measured Ki for NS(=O)(=O)c1ccc(NCC(=O)NN=C2C(=O)N(CC(=O)Nc3ccccc3)c3ccccc32)cc1 [4a] .
Response given: 804

---

target: hCA I (Homo sapiens); test: stopped flow CO2 hydrase assay, hCA I; assay type: biochemical
Sequence (P00915 whole entry): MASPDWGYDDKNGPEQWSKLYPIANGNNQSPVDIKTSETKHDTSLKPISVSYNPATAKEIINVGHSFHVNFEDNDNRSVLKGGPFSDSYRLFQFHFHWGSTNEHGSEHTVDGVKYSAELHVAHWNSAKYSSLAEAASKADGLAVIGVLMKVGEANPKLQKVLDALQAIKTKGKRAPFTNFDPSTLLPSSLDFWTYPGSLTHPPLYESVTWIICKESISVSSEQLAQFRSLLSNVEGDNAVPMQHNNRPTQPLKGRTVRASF
OBSERVED PROPERTY: pKi
Entry type: numeric. Quantity: pKi, the -log10 of concentration in molar units.

Examples with answers:
- NS(=O)(=O)c1ccc(NN=C2C(=O)N(CC(=O)Nc3ccc(Br)cc3)c3ccccc32)cc1 [3c]: 6.12
- NS(=O)(=O)c1ccc(NN=C2C(=O)N(CC(=O)Nc3ccc(Cl)cc3)c3ccccc32)cc1 [3b]: 6.05
- Cc1ccc(NC(=O)CN2C(=O)C(=NNc3ccc(S(N)(=O)=O)cc3)c3ccccc32)cc1 [3d]: 6.18
- NS(=O)(=O)c1ccc(NCC(=O)NN=C2C(=O)N(CC(=O)Nc3ccccc3Cl)c3ccccc32)cc1 [4f]: 5.36
- NS(=O)(=O)c1ccc(NN=C2C(=O)N(CC(=O)Nc3ccccc3)c3ccccc32)cc1 [3a]: 5.40

Challenge: # return pKi of NS(=O)(=O)c1ccc(NCC(=O)NN=C2C(=O)N(CC(=O)Nc3ccc(Cl)cc3)c3ccccc32)cc1 [4b] (system: hCA I (Homo sapiens))
Response given: 5.07

Challenge: # return pKi of NS(=O)(=O)c1ccc(NC(=O)CN2C(=O)C(=O)c3ccccc32)cc1 [2h] (system: hCA I (Homo sapiens))
Response given: 7.35

Challenge: # return pKi of NS(=O)(=O)c1ccc(NCC(=O)NN=C2C(=O)N(CC(=O)Nc3ccccc3)c3ccccc32)cc1 [4a] (system: hCA I (Homo sapiens))
Response given: 5.33

Challenge: # return pKi of NS(=O)(=O)c1ccc(NCC(=O)NN=C2C(=O)N(CC(=O)Nc3ccccc3Br)c3ccccc32)cc1 [4g] (system: hCA I (Homo sapiens))
Response given: 5.22
